Source: patent US20250129095A1

I'd appreciate it if you could supply IC50 values for the items below.
Test system: SK-CO-1 cells
TEST: SK-CO-1 CTG proliferation assay (120 h) (CRC, G12V)
Format: cell-based
RUN PARAMETERS: Homo sapiens
Give bare numbers, in nM.

For every listed record, write down its IC50.
1. C[C@H](Oc1cc(Nc2nccs2)nc(-c2noc3c2CCC[C@@]32CCCc3sc(N)c(C#N)c32)n1)[C@@H]1CCCN1C [II-12]
2. C[C@H](Oc1cc(Nc2cnccn2)nc(-c2noc3c2CCC[C@@]32CCCc3sc(N)c(C#N)c32)n1)[C@@H]1CCCN1C [II-14]
3. C[C@H]1CN(C)CCCN1c1cc(O[C@@H]2CNC2(C)C)nc(-c2noc3c2CCC[C@@]32CCCc3sc(N)c(C#N)c32)n1 [II-28]
4. C[C@H](Oc1cc(O[C@@H]2CNC[C@@H]2F)nc(-c2noc3c2CCC[C@@]32CCCc3sc(N)c(C#N)c32)n1)[C@@H]1CCCN1C [II-29]
5. C[C@H](Oc1cc(N[C@H]2CCOC2)nc(-c2onc3c2CCC[C@@]32CCCc3sc(N)c(C#N)c32)n1)[C@@H]1CCCN1C [Example I-4]
6. C[C@H](Oc1cc(Oc2cccnc2)nc(-c2onc3c2CCC[C@@]32CCCc3sc(N)c(C#N)c32)n1)[C@@H]1CCCN1C [Example I-2]

308
115
2590
139
762
23
